Recorded values, source patent US20260274955A1.

- Tested Target: Anti-CD28 Fab (SEQ ID NOs: 202, 203)
- Sequence (VH, as listed by the source, chain 1 of 2): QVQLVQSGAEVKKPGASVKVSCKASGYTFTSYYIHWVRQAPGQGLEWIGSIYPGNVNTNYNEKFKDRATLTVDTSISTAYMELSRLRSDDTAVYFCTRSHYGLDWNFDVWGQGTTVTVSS
- Sequence (VL, as listed by the source, chain 2 of 2): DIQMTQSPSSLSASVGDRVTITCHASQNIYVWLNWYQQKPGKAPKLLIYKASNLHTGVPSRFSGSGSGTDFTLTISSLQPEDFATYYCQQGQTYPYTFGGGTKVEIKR
- Experiment Notes: phage binding ELISA on captured Fab;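 note: clonal phage supernatants added briefly to wells pre-incubated with CD28 antigen or with blocking buffer only, then washed, bound phage read by ELISA using HRP-coupled anti-M13 antibody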
Reported Endpoint: Anti-CD28 Fab signal
Field format: numeric only.

Worked cases, answers included:
• YCMGHAPEYMAKCL [Phage-68] = 2.38
• YCEGHSSEYIQKCL [Phage-37] = 2.25
• YCDGHLPQYMWKCL [Phage-107] = 2.29

Enquiry: Which Anti-CD28 Fab signal reading was recorded for the binder YCDGHRGEYLQKCL [Phage-141] ?
Return: 2.22
